Tested on: SN12C renal
Test: NCI tumour cell line growth inhibition, 48 h

COMPOUND	STUDY_SYSTEM	TGI
O=C(CSc1nc2ccc(I)cc2c(=O)n1Cc1ccccc1)NN1C(=O)CSC1c1ccccc1 (stereo not drawn)	SN12C renal	56.1 µM
COC(=O)/C=C/c1ccc2c(c1)[C@H](C(=O)OC)[C@@H](c1ccc(O)cc1)O2	SN12C renal	> 100 µM
O=C1Nc2ccc(CN3CCOC3=O)cc2/C1=C/c1cc(CN2CCOCC2)c[nH]1	SN12C renal	> 100 µM
Oc1cc2c(cc1C(c1ccc3c(c1)OCO3)N1CCN(C(c3ccc4c(c3)OCO4)c3cc4c(cc3O)OCO4)CC1)OCO2 (stereo not drawn)	SN12C renal	31 µM
COC1C(O)CC(OC2CC(OC3CC(O[C@@H]4C(=O)c5c(cc6cc(OC7CC(OC8CC(O)C(O)C(C)O8)C(O)C(C)O7)c(C)c(O)c6c5O)C[C@H]4[C@H](OC)C(=O)[C@@H](O)[C@@H](C)O)OC(C)C3O)OC(C)C2O)OC1C (stereo partly drawn)	SN12C renal	> 60.5 µM
O=[N+]([O-])c1cc(Cl)ccc1S(=O)(=O)c1ccc(Cl)cc1[N+](=O)[O-]	SN12C renal	29.1 µM
Cc1ncc(COP(=O)(O)O)c(C)c1O	SN12C renal	> 100 µM
CN(C)c1cccc(/C=C(\C#N)c2ccccc2)c1	SN12C renal	> 100 µM
